Target Or Test System: T1, HLA-A*01:01 (human)
T1 construct: MHC class I monomer first loaded with a UV-sensitive peptide (not identified) that is cleaved by UV irradiation and exchanged for the tested peptide; captured on streptavidin plates, detected with anti-β2m; also called peptide-receptive MHC molecules
Assay Summary: UV-ligand exchange, anti-b2m ELISA
Assay Endpoint: peptide exchange yield

{"Binder": "YYDLVESTF", "peptide exchange yield": "10 to 20%"}
{"Binder": "DGIADASNLSYY", "peptide exchange yield": "20 to 50%"}
{"Binder": "AILHHLYFY", "peptide exchange yield": "10 to 20%"}
{"Binder": "PANYLGKMTY", "peptide exchange yield": "50 to 75%"}
{"Binder": "FTSDTGLEY", "peptide exchange yield": "> 75%"}
{"Binder": "STSRLTLFS", "peptide exchange yield": "20 to 50%"}
{"Binder": "TSEISQNALMYY", "peptide exchange yield": "50 to 75%"}
{"Binder": "NTDSMTLNNTAY", "peptide exchange yield": "> 75%"}

What value of measured peptide exchange yield is listed for IEKFAVLY ?
50 to 75%

What does the data say about its peptide exchange yield? Entry: YTCEECGQAF
20 to 50%
